Measured normalized growth values are reported for all entries that follow.
measurementDescription: chemical genetic growth profiling, strain panel (AID 1159580);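 note: tested at 20 µM; growth read once vehicle control cultures reached saturation at 30 °C; 1 = growth at the plate median or of vehicle wells; lower values mean less growth of the strain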
assayContext: S. cerevisiae deletion strains, growth OD, locus YLL001W, strain dnm1, stronger effect = lower value
The whole screen tested about 5,500 compounds, of which about 2,000 (36%) were called active. About 18% were inconclusive and are not listed. Some of the results follow.
Form rule: numeric answer, no unit written next to it.

Before answering, review these 3 worked examples.
[
  {
    "compound": "C[C@@H]1CC[C@]2(C(=O)O)CC[C@]3(C)C(=CCC4[C@@]5(C)CC[C@H](O)C(C)(C)C5CC[C@]43C)C2[C@H]1C (some centres undefined)",
    "metric": "normalized growth",
    "obsValue": 0.989
  },
  {
    "compound": "CC(C)CCCC1(C)C=Cc2c(O)c3c(c(CCC(C)C)c2O1)OC12C(CC4CC1C(C)(C)OC2(CCC(C)C(=O)O)C4O)C3=O (centres undefined)",
    "metric": "normalized growth",
    "obsValue": 1
  },
  {
    "compound": "C#C[C@]1(OC(C)=O)CCC2C3CCC4=CC(=O)CC[C@@H]4C3CC[C@@]21C (some centres undefined)",
    "metric": "normalized growth",
    "obsValue": 0.988
  }
]

Next:
Given the entry "Cc1cc(O)cc(C)c1Cl" , report its measured normalized growth. 0.875
